target: Histone-lysine N-methyltransferase, H3 lysine-79 specific (Homo sapiens, UniProt Q8TEK3)
Sequence (Q8TEK3 whole entry): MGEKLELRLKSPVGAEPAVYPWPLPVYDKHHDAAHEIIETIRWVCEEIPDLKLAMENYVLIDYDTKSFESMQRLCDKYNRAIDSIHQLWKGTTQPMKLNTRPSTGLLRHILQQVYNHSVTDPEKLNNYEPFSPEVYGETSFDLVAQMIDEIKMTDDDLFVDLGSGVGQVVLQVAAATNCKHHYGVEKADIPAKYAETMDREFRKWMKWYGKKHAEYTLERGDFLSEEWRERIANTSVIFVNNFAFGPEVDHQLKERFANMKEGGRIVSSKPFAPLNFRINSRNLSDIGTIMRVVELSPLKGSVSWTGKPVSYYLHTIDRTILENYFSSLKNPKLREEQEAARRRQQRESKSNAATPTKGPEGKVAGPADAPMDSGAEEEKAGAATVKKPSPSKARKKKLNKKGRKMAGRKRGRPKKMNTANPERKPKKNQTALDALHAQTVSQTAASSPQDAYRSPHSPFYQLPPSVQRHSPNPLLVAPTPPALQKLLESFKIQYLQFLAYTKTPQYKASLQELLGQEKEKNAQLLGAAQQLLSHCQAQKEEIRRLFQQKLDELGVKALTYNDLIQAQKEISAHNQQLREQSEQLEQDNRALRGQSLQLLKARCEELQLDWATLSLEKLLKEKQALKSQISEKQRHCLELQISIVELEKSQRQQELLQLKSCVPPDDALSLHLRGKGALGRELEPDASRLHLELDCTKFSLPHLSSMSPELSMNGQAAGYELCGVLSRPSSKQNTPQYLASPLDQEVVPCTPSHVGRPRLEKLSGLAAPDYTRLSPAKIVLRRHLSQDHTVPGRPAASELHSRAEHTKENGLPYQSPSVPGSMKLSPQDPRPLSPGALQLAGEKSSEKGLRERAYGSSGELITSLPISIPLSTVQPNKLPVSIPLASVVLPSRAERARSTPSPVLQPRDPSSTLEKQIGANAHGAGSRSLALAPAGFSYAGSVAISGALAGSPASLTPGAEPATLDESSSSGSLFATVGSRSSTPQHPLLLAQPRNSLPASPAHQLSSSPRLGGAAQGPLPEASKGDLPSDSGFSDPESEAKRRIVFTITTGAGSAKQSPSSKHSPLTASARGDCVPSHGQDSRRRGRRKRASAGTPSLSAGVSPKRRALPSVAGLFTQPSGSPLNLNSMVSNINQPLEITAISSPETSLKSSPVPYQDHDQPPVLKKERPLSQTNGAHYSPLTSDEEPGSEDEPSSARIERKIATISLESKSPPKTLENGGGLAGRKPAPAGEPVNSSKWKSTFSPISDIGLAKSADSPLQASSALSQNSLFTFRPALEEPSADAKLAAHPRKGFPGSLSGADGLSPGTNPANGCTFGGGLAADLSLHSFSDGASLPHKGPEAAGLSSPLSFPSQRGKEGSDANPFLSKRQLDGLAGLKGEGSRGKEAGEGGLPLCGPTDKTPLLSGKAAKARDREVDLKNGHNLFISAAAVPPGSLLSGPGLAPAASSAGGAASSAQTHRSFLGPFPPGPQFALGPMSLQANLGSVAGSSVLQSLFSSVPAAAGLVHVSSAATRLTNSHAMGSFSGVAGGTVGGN
pIC50: −log10 of the molar value.
Given measured pIC50, output met if it is greater than or equal to 7 and not met if not.

Request: I'd appreciate it if you could say whether `Cc1ccc(C#CCN(c2ccc3ncnc(N)c3c2)c2c(Cl)cccc2Cl)nc1` has pIC50 at least equal to 7.
Result: met

Request: Quick check: does `CNC(=O)c1cc(C(=O)c2c(Cl)cccc2Cl)c[nH]1` have pIC50 greater than or equal to 7?
Result: not met

Request: Can `COc1ccnc2ccc(N(C)c3c(Cl)cccc3Cl)cc12` be said to have pIC50 at or above 7?
Result: not met

Request: Given Nc1ncnc2ccc(N(CC#CC(O)c3nccn3CCO)c3c(Cl)cccc3Cl)cc12 (configuration not stated) , state whether its pIC50 is at least 7.
Result: met

Request: Has `O=C(c1ccc2ncccc2c1)c1c(Cl)cccc1Cl` a recorded pIC50 greater than or equal to 7?
Result: not met

Request: Is pIC50 at least 7? Consider `CC(=O)Nc1cncc(-c2cc(C(=O)c3c(Cl)cccc3Cl)c[nH]2)c1`
Result: not met
